Some sequences, each annotated with its measured TLR7 500 nM.
- studySystem: human TLR7 (Homo sapiens)
- Construct: HA; host or cells: 293XL-hTLR7-HA (HEK293)
- Sequence (Q9NYK1 27-1049): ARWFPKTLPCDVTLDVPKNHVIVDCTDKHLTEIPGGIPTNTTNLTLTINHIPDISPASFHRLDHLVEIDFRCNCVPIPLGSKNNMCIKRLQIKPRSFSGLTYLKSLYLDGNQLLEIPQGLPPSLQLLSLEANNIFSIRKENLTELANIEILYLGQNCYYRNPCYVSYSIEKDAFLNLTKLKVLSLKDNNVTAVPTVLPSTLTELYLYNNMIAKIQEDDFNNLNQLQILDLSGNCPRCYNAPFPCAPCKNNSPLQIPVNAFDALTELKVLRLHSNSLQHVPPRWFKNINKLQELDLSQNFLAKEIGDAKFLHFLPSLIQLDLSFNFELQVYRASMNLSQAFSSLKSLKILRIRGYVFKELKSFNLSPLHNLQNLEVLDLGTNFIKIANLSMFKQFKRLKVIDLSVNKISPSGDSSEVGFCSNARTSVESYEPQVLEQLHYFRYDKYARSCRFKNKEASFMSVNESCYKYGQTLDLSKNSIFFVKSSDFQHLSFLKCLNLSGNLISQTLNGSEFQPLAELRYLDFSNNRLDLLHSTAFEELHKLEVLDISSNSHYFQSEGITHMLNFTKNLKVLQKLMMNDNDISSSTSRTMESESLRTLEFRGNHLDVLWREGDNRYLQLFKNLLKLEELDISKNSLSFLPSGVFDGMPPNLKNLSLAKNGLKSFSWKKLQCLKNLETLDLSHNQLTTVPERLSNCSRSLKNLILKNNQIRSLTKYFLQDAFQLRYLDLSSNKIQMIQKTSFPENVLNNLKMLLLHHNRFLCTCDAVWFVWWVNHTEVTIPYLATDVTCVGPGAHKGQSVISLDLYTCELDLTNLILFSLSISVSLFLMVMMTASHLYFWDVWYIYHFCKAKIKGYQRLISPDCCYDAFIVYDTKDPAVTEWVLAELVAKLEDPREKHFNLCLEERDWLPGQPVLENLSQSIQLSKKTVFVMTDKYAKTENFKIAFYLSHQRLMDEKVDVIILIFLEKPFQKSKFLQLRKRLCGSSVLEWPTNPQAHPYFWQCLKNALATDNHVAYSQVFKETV
- assayRemarks: HEK-TLR7 NF-κB-luciferase reporter, R848 stimulation
- Format: cell-based
- conditionDetails: MOE-modified ASO at 500 nM; averaged NF-κB-Luciferase relative to R848 condition
Simply state the number, no unit and no words.

Here is how some sequences turned out for TLR7 500 nM.
1. GGTGTCCTTGCACGTGGCTT (antisense; 2'-MOE modified, pattern not given here) [EGFR-1016 MOE] | 0.131
2. TGGGCTGGAATCCGAGTTAT (antisense; 2'-MOE modified, pattern not given here) [EGFR-4705 MOE] | 0.095
3. TTCTGCAGCTTCCTTGTCCT (antisense; 2'-MOE modified, pattern not given here) [CTNN2B-2136 MOE] | 0.059
4. ATGTCCCGCCACTGGATGCT (antisense; 2'-MOE modified, pattern not given here) [EGFR-727 MOE] | 0.171
5. GCGTATTATAGCCGATTAAC (antisense; 2'-MOE modified, pattern not given here) [NC1 2′MOE] | 0.265
6. ACAACCCCTTTCACCATCCC (antisense; 2'-MOE modified, pattern not given here) [MB21D1-689 MOE] | 0.533
7. TGTCTTCATCGGCCCTGCCT (antisense; 2'-MOE modified, pattern not given here) [CAMSAP1-2112 MOE] | 0.185
8. GGTCCATACCCAAGGCATCC (antisense; 2'-MOE modified, pattern not given here) [CTNN2B-2446 MOE] | 0.096
9. GGAGATTTCAGAGCAGCTTC (antisense; 2'-MOE modified, pattern not given here) [EGFR-4885 MOE] | 0.088
10. TAGGCACTTTGCCTCCTTCT (antisense; 2'-MOE modified, pattern not given here) [EGFR-2859 MOE] | 0.205

Task item: Query: TLR7 500 nM; subject: GGCATCCACCACGTCGTCCA (antisense; 2'-MOE modified, pattern not given here) [EGFR-3266 MOE]
Reply: 0.097

---

- studySystem: TLR8 (Homo sapiens)
- Sequence (Q9NR97 27-1041): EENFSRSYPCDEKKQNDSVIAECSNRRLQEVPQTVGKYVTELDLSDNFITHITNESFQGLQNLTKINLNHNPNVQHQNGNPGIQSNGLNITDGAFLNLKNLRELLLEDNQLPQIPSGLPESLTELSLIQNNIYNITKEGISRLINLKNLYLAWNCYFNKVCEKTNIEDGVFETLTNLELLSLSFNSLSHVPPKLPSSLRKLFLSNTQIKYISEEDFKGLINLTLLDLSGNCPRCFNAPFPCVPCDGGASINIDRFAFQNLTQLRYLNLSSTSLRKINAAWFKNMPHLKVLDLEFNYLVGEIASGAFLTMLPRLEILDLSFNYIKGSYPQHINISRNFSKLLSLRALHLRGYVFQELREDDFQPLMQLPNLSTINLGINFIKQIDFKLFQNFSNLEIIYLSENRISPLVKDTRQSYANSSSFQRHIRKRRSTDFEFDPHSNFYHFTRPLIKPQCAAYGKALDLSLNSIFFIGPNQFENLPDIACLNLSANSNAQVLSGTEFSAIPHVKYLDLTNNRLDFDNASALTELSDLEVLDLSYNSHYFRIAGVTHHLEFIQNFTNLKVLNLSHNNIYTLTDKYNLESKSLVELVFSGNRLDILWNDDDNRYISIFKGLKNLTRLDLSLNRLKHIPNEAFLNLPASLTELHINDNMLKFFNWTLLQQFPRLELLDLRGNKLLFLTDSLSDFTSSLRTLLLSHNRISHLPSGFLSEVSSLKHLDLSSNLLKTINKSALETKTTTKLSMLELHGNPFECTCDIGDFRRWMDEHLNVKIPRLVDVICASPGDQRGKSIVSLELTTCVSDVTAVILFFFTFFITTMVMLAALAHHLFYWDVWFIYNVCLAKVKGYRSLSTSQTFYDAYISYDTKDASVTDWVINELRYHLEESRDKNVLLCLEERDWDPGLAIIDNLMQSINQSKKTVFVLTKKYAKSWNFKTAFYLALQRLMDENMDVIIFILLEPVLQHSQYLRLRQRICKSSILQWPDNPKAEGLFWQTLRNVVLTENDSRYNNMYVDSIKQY
- assayRemarks: HEK-TLR8 NF-κB-luciferase reporter, R848 or Motolimod stimulation (potentiation or inhibition)
- Format: cell-based
- Parameters: expressed in transfected cells; host or cells: 293XLhTLR8 (HEK293)
- conditionDetails: MOE-modified ASO at 500 nM; averaged NF-κB-Luciferase relative to R848 condition (fold increase)
- Experimental: In such examples, potentiation of TLR8 activity can be identified by observation of an overall increased TLR8 response of the cell population, or a higher proportion of cells having TLR8-positive activity as compared to a negative control condition in which cells are treated with TLR8 agonist in the absence of the oligonucleotide (or in the presence of an appropriate control non-potentiating agent). […] TLR8 activity can also be analysed by measuring cytokine levels, for example by ELISA. […]
measuredQuantity: TLR8 500 nM
Simply state the number, no unit and no words.

Here is how some sequences turned out for TLR8 500 nM.
1. AGATCTGGCAGCCCATCAAC (antisense; 2'-MOE modified, pattern not given here) [CTNN2B-2516 MOE] | 4.465
2. GCGTATTATAGCCGATTAAC (antisense; 2'-MOE modified, pattern not given here) [NC1 2′MOE] | 2.777
3. GGGTATCGAAAGAGTCTGGA (antisense; 2'-MOE modified, pattern not given here) [EGFR-3908 MOE] | 4.073
4. TTGCACACTTCGTACCCAAA (antisense; 2'-MOE modified, pattern not given here) [CAMSAP1-4915 MOE] | 1.972
5. AACACTTCGTGGGGTCCTTT (antisense; 2'-MOE modified, pattern not given here) [HPRT-664 MOE] | 3.167
6. ACACTTCGTGGGGTCCTTTT (antisense; 2'-MOE modified, pattern not given here) [HPRT-663 MOE] | 6.320
7. CTTACTTTCCGAGGTGTCCA (antisense; 2'-MOE modified, pattern not given here) [CAMSAP1-1739 MOE] | 4.827

# evaluate next
Task item: Query: TLR8 500 nM; subject: GGTGGTCCACAACCCCTTTC (antisense; 2'-MOE modified, pattern not given here) [MB21D1-697 MOE]
Reply: 3.700

---

- studySystem: human TLR9 (Homo sapiens, UniProt Q9NR96)
- Construct: HA; host or cells: 293XL-hTLR9-HA (HEK293)
- Sequence (Q9NR96 26-1032): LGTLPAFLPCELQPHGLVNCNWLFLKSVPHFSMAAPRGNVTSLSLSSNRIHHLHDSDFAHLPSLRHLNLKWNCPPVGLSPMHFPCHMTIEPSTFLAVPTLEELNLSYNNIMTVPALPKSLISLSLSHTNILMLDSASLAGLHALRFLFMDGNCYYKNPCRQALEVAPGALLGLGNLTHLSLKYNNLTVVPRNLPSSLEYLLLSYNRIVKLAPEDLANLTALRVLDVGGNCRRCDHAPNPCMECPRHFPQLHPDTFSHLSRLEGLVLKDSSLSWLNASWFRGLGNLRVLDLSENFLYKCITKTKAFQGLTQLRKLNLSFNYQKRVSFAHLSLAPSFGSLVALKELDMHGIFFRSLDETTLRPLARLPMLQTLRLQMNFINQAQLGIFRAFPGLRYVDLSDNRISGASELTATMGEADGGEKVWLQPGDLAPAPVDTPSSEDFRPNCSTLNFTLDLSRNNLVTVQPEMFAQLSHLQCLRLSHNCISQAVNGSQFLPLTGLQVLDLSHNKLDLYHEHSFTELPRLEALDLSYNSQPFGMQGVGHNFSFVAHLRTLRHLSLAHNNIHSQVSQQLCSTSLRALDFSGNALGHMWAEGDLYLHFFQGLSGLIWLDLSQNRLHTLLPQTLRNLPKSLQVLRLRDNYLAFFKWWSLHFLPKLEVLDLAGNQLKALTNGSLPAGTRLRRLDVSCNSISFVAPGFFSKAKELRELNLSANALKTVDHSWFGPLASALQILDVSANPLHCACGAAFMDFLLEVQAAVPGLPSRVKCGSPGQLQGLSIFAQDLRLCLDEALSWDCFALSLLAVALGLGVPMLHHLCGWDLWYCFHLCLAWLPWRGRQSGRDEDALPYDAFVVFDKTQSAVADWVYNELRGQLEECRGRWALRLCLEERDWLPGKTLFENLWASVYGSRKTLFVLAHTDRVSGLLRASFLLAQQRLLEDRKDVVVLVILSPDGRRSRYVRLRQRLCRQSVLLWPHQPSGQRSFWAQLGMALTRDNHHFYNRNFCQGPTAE
- assayRemarks: HEK-TLR9 NF-κB-luciferase reporter, ODN2006 stimulation
- Format: cell-based
- conditionDetails: ASO 500 nM; relative to ODN2006 only, given as fraction
Threshold 0.2. TLR9 500 nM (averaged NF-κB-Luciferase level relative to ODN2006 condition) below it: y. TLR9 500 nM (averaged NF-κB-Luciferase level relative to ODN2006 condition) at it or above: n.

Task item: Is it true that TLR9 500 nM (averaged NF-κB-Luciferase level relative to ODN2006 condition) reported for TCCAACACTTCGTGGG (antisense; LNA-modified, pattern not given here) [HPRT LNA-669 V1] is less than 0.2?
Reply: n

Task item: Is it true that TLR9 500 nM (averaged NF-κB-Luciferase level relative to ODN2006 condition) reported for GTGATCTTGACATGCT (antisense; LNA-modified, pattern not given here) [EGFR-2790 LNA KL] is less than 0.2?
Reply: y

Task item: Is it true that TLR9 500 nM (averaged NF-κB-Luciferase level relative to ODN2006 condition) reported for GAGGTCTTGGCTTCGT (antisense; LNA-modified, pattern not given here) [MB21D1-525 LNA V1] is less than 0.2?
Reply: n

Task item: Is it true that TLR9 500 nM (averaged NF-κB-Luciferase level relative to ODN2006 condition) reported for GACTATACGCGCAATA (antisense; LNA-modified, pattern not given here) [NC5 LNA PS 3-10-3] is less than 0.2?
Reply: n

Task item: Is it true that TLR9 500 nM (averaged NF-κB-Luciferase level relative to ODN2006 condition) reported for CCAGCAGGTCAGCAAA (antisense; LNA-modified, pattern not given here) [HPRT LNA-388 KL] is less than 0.2?
Reply: y

---

- studySystem: TLR8 (Homo sapiens, UniProt Q9NR97)
- assayRemarks: HEK-TLR8 NF-κB-luciferase reporter, R848 or Motolimod stimulation (potentiation or inhibition)
- Type: cell-based
- Set-up: expressed in transfected cells; host or cells: 293XLhTLR8 (HEK293)
- conditionDetails: ASO 500 nM; relative to R848 only
TLR8 500 nM (averaged NF-κB-Luciferase level relative to R848 condition, fold increase) of 1 or higher: yes. Under 1: no.

Solved entries (count: 3):
1) CACTTCGTGGGGTCCT (antisense; LNA-modified, pattern not given here) [HPRT LNA-664 V1] | yes
2) GTCTTCATCGGCCCTG (antisense; LNA-modified, pattern not given here) [CAMSAP1-2113 LNA V1] | yes
3) CGGCCTCGGAAGCTCT (antisense; LNA-modified, pattern not given here) [MB21D1-168 LNA V1] | no

Now let's try a different one.
Task item: Would you say TCTTGGCTTCGTGGAG (antisense; LNA-modified, pattern not given here) [MB21D1-521 LNA V1] shows TLR8 500 nM (averaged NF-κB-Luciferase level relative to R848 condition, fold increase) at minimum 1?
Reply: no
